Across several studies, compounds have been characterized by their pKi on Carbonic anhydrase 12 (Homo sapiens, UniProt O43570); a selection follows.
Sequence (O43570 whole entry): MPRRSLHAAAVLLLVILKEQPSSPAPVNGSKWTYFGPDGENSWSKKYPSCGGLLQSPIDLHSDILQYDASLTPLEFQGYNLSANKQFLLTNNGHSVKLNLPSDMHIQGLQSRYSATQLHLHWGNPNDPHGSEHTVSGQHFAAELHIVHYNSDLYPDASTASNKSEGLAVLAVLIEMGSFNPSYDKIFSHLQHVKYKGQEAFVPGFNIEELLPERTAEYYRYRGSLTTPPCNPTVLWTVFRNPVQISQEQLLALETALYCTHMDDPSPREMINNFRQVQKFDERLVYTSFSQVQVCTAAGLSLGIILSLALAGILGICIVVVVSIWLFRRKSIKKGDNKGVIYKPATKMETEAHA
Notebook: values listed as pKi are -log10 of the concentration (mol/L).

query: Write down the reported pKi of CNc1ccc(S(N)(=O)=O)cc1 , test system: Carbonic anhydrase 12 (Homo sapiens, UniProt O43570).
result: 7.43

query: Write down the reported pKi of NNc1ccccc1S(N)(=O)=O , test system: Carbonic anhydrase 12 (Homo sapiens, UniProt O43570).
result: 7.24

query: Write down the reported pKi of CCn1c(-c2cc(C(=O)O)[nH]n2)cc2ccccc21 , test system: Carbonic anhydrase 12 (Homo sapiens, UniProt O43570).
result: 8.11

query: Write down the reported pKi of CC(=O)c1cc2ccccc2oc1=O , test system: Carbonic anhydrase 12 (Homo sapiens, UniProt O43570).
result: 8.11

query: Write down the reported pKi of Cc1nn(-c2ccccc2C(=O)O)c2c1c(=O)oc1ccccc12 , test system: Carbonic anhydrase 12 (Homo sapiens, UniProt O43570).
result: 7.56

query: Write down the reported pKi of N#CCCN(CCc1ccccc1)CC(=O)N(CCc1ccc(S(N)(=O)=O)cc1)Cc1ccc([N+](=O)[O-])cc1 , test system: Carbonic anhydrase 12 (Homo sapiens, UniProt O43570).
result: 7.05

query: Write down the reported pKi of NCCCN(CCc1ccccc1)CC(=O)N(CCc1ccc(S(N)(=O)=O)cc1)Cc1ccc2ccccc2c1 , test system: Carbonic anhydrase 12 (Homo sapiens, UniProt O43570).
result: 7.98

query: Write down the reported pKi of NS(=O)(=O)c1ccc(C[Se]c2ccc(NC(=O)CN3C(=O)NC4(CCCCCC4)C3=O)cc2)cc1 , test system: Carbonic anhydrase 12 (Homo sapiens, UniProt O43570).
result: 7.31

query: Write down the reported pKi of NS(=O)(=O)c1cccc(NC(=O)NCCc2ccccc2)c1 , test system: Carbonic anhydrase 12 (Homo sapiens, UniProt O43570).
result: 6.31

query: Write down the reported pKi of COc1cc(-c2ccc(S(N)(=O)=O)cc2)cc(OC)c1OC , test system: Carbonic anhydrase 12 (Homo sapiens, UniProt O43570).
result: 7.49
